system: P. falciparum 3D7 parasites; experiment: Metabolomic profiling of compound-treated parasites (LC/MS); format: cell-based
Ranges used to classify Metabolite data: dCDP: low value (below -0.02), medium value (-0.02 to below 0.5), high value (0.5 or more)

{"molecule": "O=C1C(O)=C([C@H]2CC[C@H](c3ccc(Cl)cc3)CC2)C(=O)c2ccccc21 [Atovaquone, reference compound]", "groupLabel": "medium value"}
{"molecule": "CCc1nc(N)nc(N)c1-c1ccc(Cl)cc1 [Pyrimethamine]", "groupLabel": "medium value"}
{"molecule": "CCN(CC)S(=O)(=O)c1ccc(Cl)c(C(=O)Nc2ccc3nc(C)sc3c2)c1 [MMV019721-1]", "groupLabel": "medium value"}
{"molecule": "C[C@H]1Cc2c([nH]c3cc(Cl)c(F)cc23)[C@@]2(N1)C(=O)Nc1ccc(Cl)cc12 [NITD609]", "groupLabel": "high value"}
{"molecule": "CC1(C)N=C(N)N=C(N)N1OCCCOc1cc(Cl)c(Cl)cc1Cl [WR99210]", "groupLabel": "medium value"}
{"molecule": "Cc1cc(Nc2ccc3ccccc3c2)n2ncnc2n1 [DSM1]", "groupLabel": "low value"}
{"molecule": "COc1cc2[nH]c(C)c(-c3ccc(Oc4ccc(OC(F)(F)F)cc4)cc3)c(=O)c2cc1Cl [ELQ-300]", "groupLabel": "low value"}
{"molecule": "O=C(NNC(=O)c1csnn1)c1ccc(Cl)cc1 [MMV084978-1]", "groupLabel": "low value"}
{"molecule": "N#Cc1cc(NC(=O)[C@H]2c3ccccc3C(=O)N(CC(F)(F)F)[C@@H]2c2cccnc2)ccc1F [SJ733]", "groupLabel": "high value"}

Reference source: paper PMC8878317
